# ASSAYED TARGET: P2Y purinoceptor 2 (Homo sapiens, UniProt P41231)
# Sequence (P41231 whole entry): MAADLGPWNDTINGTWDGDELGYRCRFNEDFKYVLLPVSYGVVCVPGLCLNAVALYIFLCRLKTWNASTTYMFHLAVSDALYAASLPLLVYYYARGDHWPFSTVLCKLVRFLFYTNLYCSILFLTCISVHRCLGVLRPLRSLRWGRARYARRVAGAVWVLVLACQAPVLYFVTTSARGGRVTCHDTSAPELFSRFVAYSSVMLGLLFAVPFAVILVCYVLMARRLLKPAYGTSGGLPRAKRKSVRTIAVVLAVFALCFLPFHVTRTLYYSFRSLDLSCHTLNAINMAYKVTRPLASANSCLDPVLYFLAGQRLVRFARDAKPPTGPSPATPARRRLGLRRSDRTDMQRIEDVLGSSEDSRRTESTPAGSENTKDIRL
# TEST DESCRIPTION: Antagonist activity at human P2Y purinoceptor 2 expressed in human 1321N1 cells assessed as inhibition of UTP-induced increase in intracellular calcium concentration by spectrofluorimetry
# Type: functional, cell-based
The source made the active and inactive calls. The rule behind the calls is not given here.
ENDPOINT NAME: Activity

BP(=O)(OP(=O)(O)OC[C@H]1O[C@@H](n2ccc(=O)[nH]c2=O)[C@H](O)[C@@H]1O)OP(=O)(O)OP(=O)(O)OC[C@H]1O[C@@H](n2cnc3c(N)ncnc32)[C@H](O)[C@@H]1O.CCCCN(CCCC)CCCC.CCCCN(CCCC)CCCC.CCCCN(CCCC)CCCC.CCCCN(CCCC)CCCC (stereo in doubt; 9A)	inactive
BP(=O)(OP(=O)(O)OC[C@H]1O[C@@H](n2cnc3c(N)ncnc32)[C@H](O)[C@@H]1O)OP(=O)(O)OP(=O)(O)OC[C@H]1O[C@@H](n2ccc(=O)[nH]c2=O)[C@H](O)[C@@H]1O.CCCCN(CCCC)CCCC.CCCCN(CCCC)CCCC.CCCCN(CCCC)CCCC.CCCCN(CCCC)CCCC (stereo in doubt; 8B)	inactive
BP(=O)(OP(=O)(O)OC[C@H]1O[C@@H](n2cnc3c(N)ncnc32)[C@H](O)[C@@H]1O)OP(=O)(O)OP(=O)(O)OC[C@H]1O[C@@H](n2cnc3c(N)ncnc32)[C@H](O)[C@@H]1O.CCCCN(CCCC)CCCC.CCCCN(CCCC)CCCC.CCCCN(CCCC)CCCC.CCCCN(CCCC)CCCC (stereo in doubt; 6A)	inactive

* * *

Provide the recorded EC50 for the entries that follow.
# ASSAYED TARGET: P2Y purinoceptor 6 (Rattus norvegicus, UniProt Q63371)
# Sequence (Q63371 whole entry): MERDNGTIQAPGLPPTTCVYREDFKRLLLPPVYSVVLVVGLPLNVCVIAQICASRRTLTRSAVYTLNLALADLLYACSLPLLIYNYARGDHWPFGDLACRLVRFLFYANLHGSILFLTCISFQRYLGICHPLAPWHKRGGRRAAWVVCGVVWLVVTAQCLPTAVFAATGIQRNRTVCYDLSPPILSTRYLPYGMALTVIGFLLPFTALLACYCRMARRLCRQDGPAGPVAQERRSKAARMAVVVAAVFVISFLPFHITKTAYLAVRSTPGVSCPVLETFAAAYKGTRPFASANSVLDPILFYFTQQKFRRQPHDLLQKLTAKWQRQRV
# TEST DESCRIPTION: Agonist activity at rat P2Y purinoceptor 6 expressed in human 1321N1 cells assessed as increase in intracellular calcium concentration by spectrofluorimetry
# Format: functional, cell-based
# EXPERIMENTAL CONTEXT: read-out: EC50
Hi, when you answer, please include the unit after the number. Thanks!

BP(=O)(OC[C@H]1O[C@@H](n2ccc(=O)[nH]c2=O)[C@H](O)[C@@H]1O)OP(=O)(O)OP(=O)(O)OP(=O)(O)OC[C@H]1O[C@@H](n2ccc(=O)[nH]c2=O)[C@H](O)[C@@H]1O.CCCCN(CCCC)CCCC.CCCCN(CCCC)CCCC.CCCCN(CCCC)CCCC.CCCCN(CCCC)CCCC (stereo in doubt; 13B)	3.9 µM
BP(=O)(OP(=O)(O)OC[C@H]1O[C@@H](n2ccc(=O)[nH]c2=O)[C@H](O)[C@@H]1O)OP(=O)(O)OP(=O)(O)OC[C@H]1O[C@@H](n2cnc3c(N)ncnc32)[C@H](O)[C@@H]1O.CCCCN(CCCC)CCCC.CCCCN(CCCC)CCCC.CCCCN(CCCC)CCCC.CCCCN(CCCC)CCCC (stereo in doubt; 9A)	20.9 µM

Here is another compound to look at.
Given the compound BP(=O)(OP(=O)(O)OC[C@H]1O[C@@H](n2ccc(=O)[nH]c2=O)[C@H](O)[C@@H]1O)OP(=O)(O)OP(=O)(O)OC[C@H]1O[C@@H](n2ccc(=O)[nH]c2=O)[C@H](O)[C@@H]1O.CCCCN(CCCC)CCCC.CCCCN(CCCC)CCCC.CCCCN(CCCC)CCCC.CCCCN(CCCC)CCCC (stereo in doubt; 7A) , what is its reported EC50? 1.93 µM
